Source: patent US11685714B2

system_under_test: motor domain of the human kinesin spindle protein KSP/Eg5 (Homo sapiens)
Construct: The motor domain of the human kinesin spindle protein KSP/Eg5
Sequence (P52732 18-359 limits assumed): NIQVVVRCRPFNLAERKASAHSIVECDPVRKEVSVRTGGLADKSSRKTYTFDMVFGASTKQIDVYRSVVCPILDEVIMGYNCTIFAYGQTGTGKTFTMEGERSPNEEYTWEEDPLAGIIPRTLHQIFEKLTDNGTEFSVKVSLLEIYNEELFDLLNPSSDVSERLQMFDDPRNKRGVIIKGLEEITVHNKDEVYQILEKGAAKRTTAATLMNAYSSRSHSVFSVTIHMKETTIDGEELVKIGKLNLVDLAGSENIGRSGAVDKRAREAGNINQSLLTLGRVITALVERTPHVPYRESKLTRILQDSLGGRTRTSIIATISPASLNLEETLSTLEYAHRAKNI
protocol: Inhibition of the kinesin spindle protein KSP/Eg5 (ATPase activity, malachite green)
condition_notes: 10 nM KSP/Eg5, microtubuli, 500 μM ATP, 2 h at RT
# IC50 listing for each entry below

| compound | system_under_test | IC50 [nM] |
| --- | --- | --- |
| CNC(=O)[C@H](CCN(C(=O)CO)[C@@H](c1cc(-c2cc(F)ccc2F)cn1Cc1ccccc1)C(C)(C)C)NC(=O)[C@H](CC(N)=O)NC(=O)[C@@H](C)NC(=O)[C@H](C)NC(=O)Cc1ccncc1 | motor domain of the human kinesin spindle protein KSP/Eg5 (Homo sapiens) | 264 |
| CNC(=O)[C@H](CCN(C(=O)CO)[C@@H](c1cc(-c2cc(F)ccc2F)cn1Cc1ccccc1)C(C)(C)C)NC(=O)[C@H](CC(N)=O)NC(=O)[C@H](C)NC(=O)[C@H](C)NC(=O)Cc1ccncc1 [Example R3r-LLL, reference compound] | motor domain of the human kinesin spindle protein KSP/Eg5 (Homo sapiens) | 162 |
| CC(C)(C)[C@H](c1cc(-c2cc(F)ccc2F)cn1Cc1ccccc1)N(CC[C@H](N)C(=O)NCCNC(=O)CNC(=O)CCCC(=O)NCCCC[C@H](N)C(=O)O)C(=O)CO | motor domain of the human kinesin spindle protein KSP/Eg5 (Homo sapiens) | 1.41 |
| CC(C)(C)[C@H](c1cc(-c2cc(F)ccc2F)cn1Cc1ccccc1)N(CC[C@H](N)C(=O)NCCNC(=O)CCCC(=O)NCCCC[C@H](N)C(=O)O)C(=O)CO | motor domain of the human kinesin spindle protein KSP/Eg5 (Homo sapiens) | 2.03 |
